# EXPERIMENTAL SYSTEM: DNA topoisomerase 1 (Homo sapiens) (UniProt P11387)
# Sequence (whole entry): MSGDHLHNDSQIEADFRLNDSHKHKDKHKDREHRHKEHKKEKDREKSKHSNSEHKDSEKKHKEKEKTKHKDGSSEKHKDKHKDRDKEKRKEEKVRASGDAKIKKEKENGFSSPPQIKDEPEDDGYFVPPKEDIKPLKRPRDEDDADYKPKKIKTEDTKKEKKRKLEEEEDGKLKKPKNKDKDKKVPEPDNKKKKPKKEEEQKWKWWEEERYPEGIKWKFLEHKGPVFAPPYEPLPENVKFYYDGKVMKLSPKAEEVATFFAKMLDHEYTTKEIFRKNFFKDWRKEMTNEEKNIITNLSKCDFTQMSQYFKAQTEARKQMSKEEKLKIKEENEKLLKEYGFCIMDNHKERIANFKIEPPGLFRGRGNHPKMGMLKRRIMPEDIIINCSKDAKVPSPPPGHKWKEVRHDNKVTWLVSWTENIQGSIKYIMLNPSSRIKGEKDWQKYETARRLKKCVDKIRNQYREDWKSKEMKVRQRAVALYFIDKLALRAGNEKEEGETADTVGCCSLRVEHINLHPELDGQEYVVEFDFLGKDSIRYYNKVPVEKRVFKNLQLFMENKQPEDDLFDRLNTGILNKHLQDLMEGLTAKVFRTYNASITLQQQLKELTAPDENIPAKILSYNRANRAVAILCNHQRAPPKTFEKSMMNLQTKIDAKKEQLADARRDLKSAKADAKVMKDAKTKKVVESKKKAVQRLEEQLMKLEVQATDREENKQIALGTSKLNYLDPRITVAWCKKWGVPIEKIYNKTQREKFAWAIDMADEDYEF
# PROTOCOL: Inhibition of recombinant human topoisomerase 1-mediated DNA relaxation expressed in Saccharomyces cerevisiae TopI null strain RS190 at 60 uM using negatively supercoiled pUC18 as substrate pretreated with enzyme for 15 mins followed by substrate addition measured after 3 mins by agarose gel electrophoresis
METRIC NAME: inhibition (%)

Study these solved cases before continuing.
O=P(c1ccccc1)(c1ccccc1)c1cccc2c1N[C@H](c1ccccn1)C[C@@H]2c1ccccc1 34
Fc1ccc([C@H]2C[C@@H](c3ccc(F)cc3)Nc3c2cccc3P(c2ccccc2)c2ccccc2)cc1 20
Fc1ccc([C@H]2C[C@@H](c3ccc(F)cc3)Nc3c2cccc3P(=S)(c2ccccc2)c2ccccc2)cc1 19
S=P(c1ccccc1)(c1ccccc1)c1cccc2c1N[C@H](c1ccccc1)C[C@@H]2c1ccccc1 0
Cc1ccc([C@H]2C[C@@H](c3ccccc3)Nc3c2cccc3P(c2ccccc2)c2ccccc2)cc1 22
S=P(c1ccccc1)(c1ccccc1)c1cccc2c1N[C@H](c1ccc3ccccc3c1)C[C@@H]2c1ccccc1 28

1. c1ccc([C@H]2C[C@@H](c3ccccc3)Nc3c2cccc3P(c2ccccc2)c2ccccc2)cc1
2. FC(F)(F)c1ccc(-c2cc(-c3ccccc3)c3cccc(P(=S)(c4ccccc4)c4ccccc4)c3n2)cc1
3. Cc1ccc([C@H]2C[C@@H](c3ccc(F)cc3)Nc3c2cccc3P(c2ccccc2)c2ccccc2)cc1
IN: Please order the records by their reported inhibition, lowest number first. Give your ranking as a list of the labels in the requested order.
OUT: 1, 2, 3
(1: 0%, 2: 24%, 3: 53%)

---

# EXPERIMENTAL SYSTEM: DNA topoisomerase 1 (Homo sapiens)
# PROTOCOL: Inhibition of recombinant human topoisomerase 1-mediated DNA relaxation expressed in Saccharomyces cerevisiae TopI null strain RS190 at 80 uM using negatively supercoiled pUC18 as substrate pretreated with enzyme for 15 mins followed by substrate addition measured after 3 mins by agarose gel electrophoresis
METRIC NAME: inhibition (%)

As a guide, the following entries are already answered.
O=P(c1ccccc1)(c1ccccc1)c1cccc2c(-c3ccccc3)cc(-c3ccc(C(F)(F)F)cc3)nc12 28
O=P(c1ccccc1)(c1ccccc1)c1cccc2c1N[C@H](c1ccccn1)C[C@@H]2c1ccccc1 76
Cc1ccc(-c2cc(-c3ccccc3)nc3c(P(=O)(c4ccccc4)c4ccccc4)cccc23)cc1 5

1. Cc1ccc([C@H]2C[C@@H](c3ccccc3)Nc3c2cccc3P(=O)(c2ccccc2)c2ccccc2)cc1
2. O=P(c1ccccc1)(c1ccccc1)c1cccc2c(-c3ccccc3)cc(-c3ccc(F)cc3)nc12
IN: Hi there! Just curious which has the higher inhibition between 1 and 2 . Output the label that corresponds to your choice.
OUT: 2
(2: 25%, 1: 12%)

1. S=P(c1ccccc1)(c1ccccc1)c1cccc2c1N[C@H](c1ccc3ccccc3c1)C[C@@H]2c1ccccc1
2. O=P(c1ccccc1)(c1ccccc1)c1cccc2c1N[C@H](c1cccc3ccccc13)C[C@@H]2c1ccccc1
IN: Which is greater in inhibition, the first item 1 or the second item 2 ? Response format: the label of the selected entry.
OUT: 1
(1: 76%, 2: 45%)

---

# EXPERIMENTAL SYSTEM: DNA topoisomerase 1 (Homo sapiens)
# Sequence (whole entry): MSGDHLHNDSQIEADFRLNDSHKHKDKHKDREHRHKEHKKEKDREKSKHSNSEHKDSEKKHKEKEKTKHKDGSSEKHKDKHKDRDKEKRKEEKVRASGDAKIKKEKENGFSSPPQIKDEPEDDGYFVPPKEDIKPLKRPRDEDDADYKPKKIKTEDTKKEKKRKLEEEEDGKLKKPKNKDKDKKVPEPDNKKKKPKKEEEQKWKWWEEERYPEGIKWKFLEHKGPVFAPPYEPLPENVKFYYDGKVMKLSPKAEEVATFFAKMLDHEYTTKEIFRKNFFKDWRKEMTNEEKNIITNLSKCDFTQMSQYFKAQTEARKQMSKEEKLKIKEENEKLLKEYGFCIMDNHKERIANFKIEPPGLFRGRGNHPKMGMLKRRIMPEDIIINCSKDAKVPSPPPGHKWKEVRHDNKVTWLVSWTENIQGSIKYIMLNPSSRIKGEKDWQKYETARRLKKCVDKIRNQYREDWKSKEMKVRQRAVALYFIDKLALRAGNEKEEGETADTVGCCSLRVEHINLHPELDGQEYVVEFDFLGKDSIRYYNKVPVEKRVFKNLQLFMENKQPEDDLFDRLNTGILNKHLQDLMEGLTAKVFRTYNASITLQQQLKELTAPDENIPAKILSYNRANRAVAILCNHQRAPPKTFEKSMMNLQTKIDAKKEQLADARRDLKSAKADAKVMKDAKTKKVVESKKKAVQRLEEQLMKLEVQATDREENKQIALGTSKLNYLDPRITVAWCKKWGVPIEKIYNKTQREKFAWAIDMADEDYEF
# PROTOCOL: Inhibition of recombinant human topoisomerase 1-mediated DNA relaxation expressed in Saccharomyces cerevisiae TopI null strain RS190 at 80 uM using negatively supercoiled pUC18 as substrate pretreated with enzyme for 15 mins followed by substrate addition measured after 1 min by agarose gel electrophoresis
METRIC NAME: inhibition (%)

FC(F)(F)c1ccc([C@@H]2C[C@H](c3ccccc3)c3cccc(P(c4ccccc4)c4ccccc4)c3N2)cc1 61

1. COc1ccc([C@@H]2C[C@H](c3ccc(C)cc3)c3cccc(P(c4ccccc4)c4ccccc4)c3N2)cc1
2. O=P(c1ccccc1)(c1ccccc1)c1cccc2c(-c3ccccc3)cc(-c3ccc(F)cc3)nc12
IN: Field: lower inhibition | Options: 1 / 2 Selection: enter the item's label.
OUT: 2
(2: 28%, 1: 52%)

I. c1ccc([C@H]2C[C@@H](c3ccccc3)Nc3c2cccc3P(c2ccccc2)c2ccccc2)cc1
II. Cc1ccc(-c2cc(-c3ccccc3)nc3c(P(=O)(c4ccccc4)c4ccccc4)cccc23)cc1
III. O=P(c1ccccc1)(c1ccccc1)c1cccc2c1N[C@H](c1ccc(F)cc1)C[C@@H]2c1ccccc1
IV. O=P(c1ccccc1)(c1ccccc1)c1cccc2c(-c3ccccc3)cc(-c3ccc(C(F)(F)F)cc3)nc12
IN: Given 4 compounds, produce a descending ranking by inhibition. Please reply with the labels ordered as requested. Many thanks.
OUT: I, III, IV, II
(I: 85%, III: 50%, IV: 28%, II: 7%)

---

# EXPERIMENTAL SYSTEM: DNA topoisomerase 1 (Homo sapiens)
# PROTOCOL: Inhibition of recombinant human topoisomerase 1-mediated DNA relaxation expressed in Saccharomyces cerevisiae TopI null strain RS190 at 80 uM using negatively supercoiled pUC18 as substrate pretreated with enzyme for 15 mins followed by substrate addition measured after 3 mins by agarose gel electrophoresis
METRIC NAME: inhibition (%)

Some entries whose results are on file:
O=P(c1ccccc1)(c1ccccc1)c1cccc2c1N[C@H](c1ccc(F)cc1)C[C@@H]2c1ccccc1 16
Fc1ccc([C@@H]2C[C@H](c3ccccc3)c3cccc(P(=S)(c4ccccc4)c4ccccc4)c3N2)cc1F 49

A. O=P(c1ccccc1)(c1ccccc1)c1cccc2c1N[C@H](c1ccc(C(F)(F)F)cc1)C[C@@H]2c1ccccc1
B. S=P(c1ccccc1)(c1ccccc1)c1cccc2c(-c3ccccc3)cc(-c3ccccc3)nc12
IN: Problem: Given the entries A and B , determine which has the lower reported inhibition. Label of pick, please.
OUT: A

A. O=P(c1ccccc1)(c1ccccc1)c1cccc2c1N[C@H](c1ccc(F)cc1)C[C@@H]2c1ccc(F)cc1
B. O=P(c1ccccc1)(c1ccccc1)c1cccc2c(-c3ccccc3)cc(-c3ccccn3)nc12
IN: Pick the one with the larger inhibition: A vs B Output the label that corresponds to your choice.
OUT: A
(A: 45%, B: 11%)
